# METHOD: NCI Yeast Anticancer Drug Screen. Data for the cln2 rad14 strain (AID 165);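 further: 0% = growth equal to vehicle treated cultures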
# SETTINGS: S. cerevisiae cln2 rad14 strain, at 50.0 µM (retest, dose inferred, filed as 5.0), active compounds read high
Compounds without any hit were thinned out: in the full panel of roughly 79,000, 15% have a hit.
Please use criterion met whenever growth inhibition is not below 50%, and criterion not met whenever it is.

Look over these answered cases.
INSERT INTO results (molecule, classification) VALUES
  ('CCCCCC(C1SC(=S)NC1=O)C1SC(=S)NC1=O (configuration not stated)', 'criterion not met'),
  ('CC12CCC(=O)C=C1C=CC1C2CCC2(C)C1CCC21CCC(=O)O1 (configuration not stated)', 'criterion met'),
  ('O=C(Nc1ccc2c(c1)Cc1cc([N+](=O)[O-])c(F)cc1-2)C(F)(F)F', 'criterion not met'),
  ('CC(C)C(O)(C(=O)OCN1C(=O)C2C3C=CC(C2C1=O)C1C2C(=O)N(COC(=O)C(O)(C(C)C)C(C)O)C(=O)C2C31)C(C)O (configuration not stated)', 'criterion not met'),
  ('O=C1c2ccccc2C(=O)c2cc(S(=O)(=O)Cl)ccc21', 'criterion met'),
  ('CS(=O)(=O)OCCN(CCOS(C)(=O)=O)c1ccc(C=Nc2ccc(-c3cnc(-c4ccc(Cl)cc4)s3)cc2)c(Cl)c1', 'criterion met'),
  ('CN(C)C1=NC(N(C)C)=C2C=CC=C12', 'criterion not met'),
  ('Cc1ccc(C(C)(C)c2ccc(C(=O)O)cc2)cc1', 'criterion not met');

Hi, just wondering whether CSc1ccc(/C=C2\CN(C)C/C(=C\c3ccc(SC)cc3)C2=O)cc1 shows growth inhibition of 50% or higher. criterion not met

Hi, just wondering whether COc1cccc2c1C(=O)c1c(O)c3c(c(O)c1C2=O)CC(O)(C(C)=O)CC3OC1OC(COC(C)=O)C(OC(C)=O)C(OC(C)=O)C1OC(C)=O (configuration not stated) shows growth inhibition of 50% or higher. criterion not met

Hi, just wondering whether O=C(CNc1ccc([N+](=O)[O-])cc1)Nn1c(-c2ccccc2)nc2ccccc2c1=O shows growth inhibition of 50% or higher. criterion not met

Hi, just wondering whether COc1ccc2c(N3CCN(C(=O)C(Cl)(Cl)Cl)CC3)cc(C)nc2c1 shows growth inhibition of 50% or higher. criterion not met

Hi, just wondering whether O=C(Cl)C(c1ccccc1)(c1ccccc1)c1ccccc1 shows growth inhibition of 50% or higher. criterion met

Hi, just wondering whether CCc1ccc2ccc3ccc(CC)nc3c2n1 shows growth inhibition of 50% or higher. criterion met

Hi, just wondering whether C=C(C)C(CC=C(C)C)Cc1c(O)cc(OC)c2c1OC(c1ccc(O)cc1O)C(O)C2=O (configuration not stated) shows growth inhibition of 50% or higher. criterion not met

Hi, just wondering whether O=C(O)C1OC(Oc2ccc3oc4ccccc4c(=O)c3c2)C(O)C(O)C1O (configuration not stated) shows growth inhibition of 50% or higher. criterion not met

Hi, just wondering whether CCc1ccc(N(C(C)=O)C2=C(Cl)C(=O)c3ccccc3C2=O)cc1 shows growth inhibition of 50% or higher. criterion met

Hi, just wondering whether O=C1CC(c2ccccc2)C(c2ccccc2)CO1 (configuration not stated) shows growth inhibition of 50% or higher. criterion met

Hi, just wondering whether CCOCCOc1ccc(OCCOCC)cc1 shows growth inhibition of 50% or higher. criterion not met

Hi, just wondering whether CC(C)CCCC(C)C1CCC2C3CC=C4CC(OC(=O)Nc5ccc(S(=O)(=O)c6ccc(F)cc6)cc5)CCC4(C)C3CCC12C (configuration not stated) shows growth inhibition of 50% or higher. criterion not met

Hi, just wondering whether Cc1ccc(NCCN(C)C)c2c(=O)c3ccc(O)cc3sc12 shows growth inhibition of 50% or higher. criterion met

Hi, just wondering whether CC(C)[CH2][Ge]([Cl])([Cl])[Cl] shows growth inhibition of 50% or higher. criterion not met

Hi, just wondering whether COc1ccc(/C=N/N=c2\[nH][nH]/c(=N\N=C\c3ccc(OC)c4ccccc34)c3ccccc23)c2ccccc12 shows growth inhibition of 50% or higher. criterion not met

Hi, just wondering whether CC(C)C1(C)C(C#N)(C#N)C1(C#N)C#N shows growth inhibition of 50% or higher. criterion not met

###

# growth inhibition per entry
# METHOD: NCI Yeast Anticancer Drug Screen. Data for the cln2 rad14 strain (AID 165);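 further: 0% = growth equal to vehicle treated cultures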
# SETTINGS: S. cerevisiae cln2 rad14 strain, at 50.0 µM, active compounds read high
About 79,000 compounds went through this panel and 15% of them were active in at least one assay; those are over-represented in the sample as a whole.
Response body: numeric value in %, unit text excluded.

Take a look at these entries with their results.
INSERT INTO assay_data (molecule, assay_metric, number) VALUES
  ('COc1ccccc1C1c2cc3c(cc2OC(N2CCOCC2)C1C)OCO3 (stereo unspecified)', 'growth inhibition', 18.3),
  ('Oc1ccc(-c2nnc(-c3ccccc3)nn2)cc1', 'growth inhibition', -52.5);

Using the record for O=C(O)/C=C\C(=O)Nc1ccc2c(c1)C(=O)c1cc(F)ccc1-2 , report its growth inhibition. 68.2

Using the record for CC(C)(C)C1=CC(N2CCCCC2)(C(C)(C)C)C=C(C(C)(C)C)C1=O , report its growth inhibition. 65.3

Using the record for c1ccc([P+](Cc2ccc(C[P+](c3ccccc3)(c3ccccc3)c3ccccc3)s2)(c2ccccc2)c2ccccc2)cc1 , report its growth inhibition. 67.4

Using the record for Cc1c(N=Nc2ccccc2Cl)c(-c2ccccc2)nn1C(=S)S , report its growth inhibition. 97.3

Using the record for O=C1CC(c2ccccc2)NN1 (stereo unspecified) , report its growth inhibition. 87.8

Using the record for C1CCC(CCCCc2nn[nH]n2)CC1 , report its growth inhibition. 98.3

Using the record for Cc1cc(NCCCCCCCCNc2cc(C)nc3cc(N(C)C)ccc23)c2ccc(N(C)C)cc2n1 , report its growth inhibition. 18.4

Using the record for CN(C)CC(CN(C)C)C(=O)C1CCCCC1 , report its growth inhibition. 10.3

Using the record for Cc1cc(Cl)c2cc(Cc3ccc(Br)cc3)ccc2n1 , report its growth inhibition. 50.6

###

# METHOD: NCI Yeast Anticancer Drug Screen. Data for the rad50 strain (AID 155);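 further: 0% = growth of vehicle-only cultures of the same strain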
# SETTINGS: S. cerevisiae rad50 strain growth inhibition; at 50.0 µM; active compounds read high
About 79,000 compounds went through this panel and 15% of them were active in at least one assay; those are over-represented in the sample as a whole.
# growth inhibition per entry
Response body: numeric value in %, unit text excluded.

Take a look at these entries with their results.
INSERT INTO assay_data (compound, assay_metric, number) VALUES
  ('N#CC(C#N)=C/C=C/c1c(Cl)cccc1Cl', 'growth inhibition', 71.2),
  ('COc1ccc(/C=C\Cc2cc3c(cc2OCCO)OCO3)cc1', 'growth inhibition', 96.7),
  ('CC(=O)c1ccc([N+](=O)[O-])o1', 'growth inhibition', 96.5),
  ('COC(=O)Cc1nc2ccccc2s1', 'growth inhibition', 99.2),
  ('O=[N+]([O-])c1ccc(CO)o1', 'growth inhibition', 93.1),
  ('O=[N+]([O-])c1ccc(C2=C[P+](c3ccccc3)(c3ccccc3)C=C(c3ccccc3)O2)cc1', 'growth inhibition', 91);

Using the record for C/C=C/CSc1cc(NC(=S)c2ccsc2C)ccc1Cl , report its growth inhibition. 88.2

Using the record for O=C1CCC(c2ccccc2)=NN1c1nc2ccccc2s1 , report its growth inhibition. 98.3

###

# METHOD: NCI Yeast Anticancer Drug Screen. Data for the bub3 strain (AID 167)
# SETTINGS: S. cerevisiae bub3 mutant strain, at 50.0 µM (retest, dose inferred, filed as 5.0), active compounds read high
This is part of a sample that, as a whole, favours compounds with a hit. Of some 79,000 tested, about 15% had one in any assay.
Please use met whenever growth inhibition is not below 90%, and not met whenever it is.

Look over these answered cases.
INSERT INTO results (compound, classification) VALUES
  ('C=CCc1ccc2c(C)cc[n+](C)c2c1O', 'met'),
  ('COc1ccc(OC)c(/C=C/NC=O)c1', 'not met'),
  ('COc1cccc2c1C(=O)c1c(O)c3c(c(O)c1C2=O)CC(O)(C(C)=O)CC3OC1OC(COC(C)=O)C(OC(C)=O)C(OC(C)=O)C1OC(C)=O (centres undefined)', 'not met'),
  ('C=C1CC(Cn2cc(Br)c(=O)[nH]c2=O)(c2ccc(Br)cc2)OC1=O (centres undefined)', 'met');

Hi, just wondering whether CCN(CC)c1ccc(N=Nc2ccc(-c3nc4ccc[n+](C)c4s3)cc2)cc1 shows growth inhibition of 90% or higher. met

Hi, just wondering whether Cc1c2cnccc2c(C)c2c1c1ccccc1n2CCOC(=O)c1ccccc1 shows growth inhibition of 90% or higher. not met

Hi, just wondering whether CCCCCCCCCCCCCCC[N+]1(CC)CCCCC1 shows growth inhibition of 90% or higher. met
